Data provenance: PubChem BioAssay (NCI)

Tested on: SK-MEL-5 melanoma
PROCEDURE SUMMARY: NCI tumour cell line growth inhibition, 48 h
# Lookup of reported TGI keyed by entry
OBSERVED PROPERTY: TGI (µM)

>>> observed_value("CN(C1=NCCO1)c1cccc2c1CCCC2")
4.84
>>> observed_value("Clc1c(Cl)c2c(Cl)c(Cl)c1C[P+](c1ccccc1)(c1ccccc1)CC[P+](c1ccccc1)(c1ccccc1)Cc1c(Cl)c(Cl)c(c(Cl)c1Cl)C[P+](c1ccccc1)(c1ccccc1)CC[P+](c1ccccc1)(c1ccccc1)C2")
3.13
>>> observed_value("CCn1cnc2c(Nc3cccc(Cl)c3)nc(N[C@@H]3CCCC[C@@H]3N)nc21")
3.11
>>> observed_value("C[C@@H]1C=C2C(=O)O[C@@H]3CC[C@H](C1)[C@]23O")
24
>>> observed_value("COc1ccc(C(c2c(O)c3ccccc3n(C)c2=O)c2c(O)c3ccccc3n(C)c2=O)cc1")
54.6
>>> observed_value("CCC(=C/[C@H](C)C/C=C/C(C)=C/[C@@H](C)C(=O)[C@@H](C)[C@H](O)[C@@H](C)CC)/C=C/[C@H]1OC(=O)C=C[C@H]1C")
0.0437
>>> observed_value("CN(C)CCNC(=O)c1cccc2[nH]c(-c3ccccc3)nc12")
28.4
>>> observed_value("COc1ccc2c(c1)CC[C@@H]1[C@@H]2CC[C@]2(C)C(c3ccco3)=C(C=O)C[C@@H]12")
19
>>> observed_value("O=[N+]([O-])c1cc(-[n+]2cc([O-])on2)ccc1F")
28.4
>>> observed_value("CCCCCCCC[N+](C)(CCCCCCCC)CCCCCCCC")
0.344
>>> observed_value("COC(=O)C(Cl)=C1CC1")
84.9
>>> observed_value("COC1=CC(c2ccc[nH]2)=N/C1=C\\c1[nH]c(C)c(C(=O)CCCCC(=O)Nc2ccccc2)c1C")
11.6
>>> observed_value("COc1cc2nc(Nc3cccc(F)c3)nc(Nc3cc(C)[nH]n3)c2cc1OC")
2.84
>>> observed_value("CC(C)NC(=O)OCc1c(COC(=O)NC(C)C)n(C)c2c1ccc1ccccc12")
6.63
>>> observed_value("COC1=CC(c2ccc[nH]2)=N/C1=C\\c1ccc[nH]1")
0.261

====

Overview of reported TGI across a group of molecules:
System: HCC-2998 colon
PROCEDURE SUMMARY: NCI tumour cell line growth inhibition, 48 h
OBSERVED PROPERTY: TGI

>>> observed_value("CCOC(=O)c1[nH]c2ccccc2c1C(=O)C[C@H](NC(=O)C(F)(F)F)C(=O)OC")
"> 100 µM"
>>> observed_value("CN(C)c1nc(NN)c2c(-c3ccccc3)c(-c3ccccc3)oc2n1")
"> 100 µM"
>>> observed_value("Cn1c2ccccc2c(=NNc2ccccc2C(=O)O)c2ccccc21")
"46.8 µM"
>>> observed_value("COc1nc2sc3c(c2c(=O)n1CCCSSCCCn1c(OC)nc2sc4c(c2c1=O)CCCC4)CCCC3")
"> 100 µM"
>>> observed_value("Cc1ccc(-c2csc(=Nc3c(C)n(C)n(-c4ccccc4)c3=O)n2CCO)cc1")
"> 100 µM"
>>> observed_value("CCN(CC)CCCNc1nc2ccccc2c2[nH]c3ccc(OC)cc3c12")
"2.33 µM"
>>> observed_value("O=C(COc1ccccc1)NS(=O)(=O)c1ccccc1")
"> 100 µM"
>>> observed_value("CS(=O)(=O)Nc1ccc(Nc2c3ccccc3nc3ccccc23)cc1")
"27 µM"
>>> observed_value("Cc1cccc(-c2cc(=S)c3cc(N4CCCC4)ccc3[nH]2)c1")
"> 100 µM"
>>> observed_value("COc1ccc(N2C(=O)C3c4[nH]c5cccc(C)c5c4C4CCC(C(C)(C)C)CC4C3C2=O)cc1 (stereo not given)")
"> 10 µM"

====

System: SF-268 CNS
PROCEDURE SUMMARY: NCI tumour cell line growth inhibition, 48 h
OBSERVED PROPERTY: TGI

>>> observed_value("C[C@@H]1C=C2C(=O)O[C@@H]3CC[C@H](C1)[C@]23O")
"30.4 µM"
>>> observed_value("NCc1nnn(Cc2ccccc2)c1N")
"> 100 µM"
>>> observed_value("N#CC1=C(N)OC(c2ccc([N+](=O)[O-])cc2)C1(C#N)C#N (stereo not given)")
"> 54.3 µM"
>>> observed_value("NS(=O)(=O)c1ccc(CNc2nc(-c3cccs3)nc3ccc(I)cc23)cc1")
"61.6 µM"
>>> observed_value("C[C@H]1[C@H](C)CC[C@]2(C(=O)O)CC[C@]3(C)C(=CC[C@@H]4[C@@]5(C)C/C(=C/c6ccco6)C(=O)C(C)(C)[C@@H]5CC[C@]43C)[C@H]12")
"22.1 µM"
>>> observed_value("CN(C)CC1(C)CC/C(=C\\c2ccccc2)C1=O (stereo not given)")
"> 100 µM"
>>> observed_value("CCOC(=O)c1c(C(F)(F)F)n([O-])c2ccc(OC)cc2[n+]1=O")
"72.5 µM"
>>> observed_value("CS(=O)(=O)Nc1ccc(Nc2c3ccccc3nc3ccccc23)cc1")
"24.5 µM"
>>> observed_value("CCOC(=O)CCC(NC(=O)c1ccc(OCc2nc3ccccc3n3cccc23)cc1)C(=O)OCC (stereo not given)")
"> 100 µM"
>>> observed_value("CC(C)NC(=O)OCc1c(COC(=O)NC(C)C)n(C)c2c1ccc1ccccc12")
"6.2 µM"
>>> observed_value("O=C(COc1ccccc1)NS(=O)(=O)c1ccccc1")
"> 100 µM"
>>> observed_value("COc1ccc2oc(C(=O)N3CC(CCl)c4ccc([N+](=O)[O-])cc43)cc2c1 (stereo not given)")
"53.8 µM"
>>> observed_value("CCOC(=O)c1cn(Cc2ccccc2)c(=O)n1Cc1ccccc1")
"> 100 µM"
>>> observed_value("Cc1ccc(Cl)c(NC(=O)C(=O)C(C(=O)c2ccncc2)C2OC(=O)c3ccccc32)c1 (stereo not given)")
"> 100 µM"
>>> observed_value("O=C1OC(O)C(Oc2ccc(Cl)cc2)=C1Cl (stereo not given)")
"> 100 µM"
>>> observed_value("COc1cc([N+](=O)[O-])ccc1NC1=CC(=O)CCC1")
"> 100 µM"
>>> observed_value("Clc1c(Cl)c2c(Cl)c(Cl)c1C[P+](c1ccccc1)(c1ccccc1)CC[P+](c1ccccc1)(c1ccccc1)Cc1c(Cl)c(Cl)c(c(Cl)c1Cl)C[P+](c1ccccc1)(c1ccccc1)CC[P+](c1ccccc1)(c1ccccc1)C2")
"12.6 µM"
>>> observed_value("CCCCN1C(=O)NC(Cc2ccccc2)C1=O (stereo not given)")
"> 100 µM"
>>> observed_value("O=[N+]([O-])c1cc(Cl)cc2cc(Cl)cnc12")
"> 100 µM"
>>> observed_value("COC(=O)CCC/C=C\\C[C@H]1C=CC(=O)/C1=C/C[C@@H](O)C/C=C\\CC(F)(F)F")
"13.8 µM"
>>> observed_value("Cc1ccc(S(=O)(=O)N2CCc3ccc(O)c4c3C2Cc2cc(Cl)ccc2-4)cc1 (stereo not given)")
"9.72 µM"
>>> observed_value("CCN(CC)CCCNc1nc2ccccc2c2[nH]c3ccc(OC)cc3c12")
"4.43 µM"
>>> observed_value("COc1cc2nc(Nc3cccc(F)c3)nc(Nc3cc(C)[nH]n3)c2cc1OC")
"3.46 µM"
>>> observed_value("NC1=NNC2(C(N)=N1)c1ccccc1-c1ccccc12")
"> 10 µM"
>>> observed_value("N/N=C1\\CCCc2c1no[n+]2[O-]")
"> 100 µM"

====

Tested on: UACC-257 melanoma
PROCEDURE SUMMARY: NCI tumour cell line growth inhibition, 48 h
# maps each entry to its GI50
OBSERVED PROPERTY: GI50

>>> observed_value("COc1ccc(-c2nc(-c3nc4ccc(OC)cc4[nH]3)cc3c2[nH]c2ccccc23)cc1")
"4.34 µM"
>>> observed_value("CCCN(CCC)c1ccc(/C=N/NC(=O)c2cccnc2)c(Cl)c1")
"0.816 µM"
>>> observed_value("COc1ccc2c(c1)CC[C@@H]1[C@@H]2CC[C@]2(C)C(c3ccco3)=C(C=O)C[C@@H]12")
"21.7 µM"
>>> observed_value("C[C@H]1[C@H](C)CC[C@]2(C(=O)O)CC[C@]3(C)C(=CC[C@@H]4[C@@]5(C)C/C(=C/c6ccco6)C(=O)C(C)(C)[C@@H]5CC[C@]43C)[C@H]12")
"6.49 µM"

====

System: SK-MEL-2 melanoma
PROCEDURE SUMMARY: NCI tumour cell line growth inhibition, 48 h
OBSERVED PROPERTY: TGI (µM)

>>> observed_value("COc1ccc(NC(=O)c2sc3nc(C)c(C(O)c4ccccc4)cc3c2N)cc1 (stereo not given)")
85.7
>>> observed_value("O=C(Cc1ccc(Cl)c(Cl)c1)N(CCc1ccc(Cl)c(Cl)c1)CCN1CCCC1")
3.36
>>> observed_value("CCOC(=O)c1sc(=S)c2c(C(=O)OCC)c(C(=O)OCC)sc2c1C(=O)OCC")
44.7
>>> observed_value("O=C(/C=C\\c1ccc(Cl)cc1Cl)c1cccs1")
35.5
